# Test system: Proteus vulgaris
# Experiment Summary: Antimicrobial activity against Proteus vulgaris MTCC 1771 assessed as absence of visible growth after 48 to 72 hrs
# Type: functional
Metric: MIC (µg/mL)
Please state the figure in µg/mL; there is no need to write the unit.

Look over these answered cases.
N#CC1=C(N)[C@]2(C(=O)Nc3ccccc32)[C@@H](c2cccs2)[C@@H]2CCCC=C12 = 62.5
COc1ccc([C@H]2[C@@H]3CCCC=C3C(C#N)=C(N)C23C(=O)CCCC3=O)cc1 (relative stereo) = 125
N#CC1=C(N)[C@]2(C(=O)Nc3ccccc32)[C@@H](c2ccc(Br)cc2)[C@@H]2CCCC=C12 = 1000
N#CC1=C(N)C2(C(=O)c3ccccc3C2=O)[C@@H](c2cccc3ccccc23)[C@@H]2CCCC=C12 (relative stereo) = 125
N#CC1=C(N)[C@]2(C(=O)Nc3ccccc32)[C@@H](c2ccc(Cl)cc2)[C@@H]2CCCC=C12 = 125
Cc1ccc([C@H]2[C@@H]3CCCC=C3C(C#N)=C(N)[C@]23C(=O)Nc2ccccc23)cc1 = 250
Cc1ccc([C@H]2[C@@H]3CCCCC=C3C(C#N)=C(N)C23C(=O)c2ccccc2C3=O)cc1 (relative stereo) = 62.5

# evaluate next
[in] Hi! What's the reported MIC for N#CC1=C(N)C2(C(=O)c3ccccc3C2=O)[C@@H](c2ccc(Cl)cc2)[C@@H]2CCCCC=C12 (relative stereo) on Proteus vulgaris?
[out] 62.5

* * *

# System: Klebsiella pneumoniae
# Experiment Summary: Antimicrobial activity against Klebsiella pneumonia MTCC 109 assessed as absence of visible growth after 48 to 72 hrs
# Type: functional
Metric: MIC

Cc1ccc([C@H]2[C@@H]3CCCC=C3C(C#N)=C(N)C23C(=O)c2ccccc2C3=O)cc1 (relative stereo) = 250 µg/mL
CN[C@@H]1[C@H](O[C@H]2[C@H](O[C@H]3[C@H](O)[C@@H](O)[C@H](N=C(N)N)[C@@H](O)[C@@H]3N=C(N)N)O[C@@H](C)[C@]2(O)C=O)O[C@@H](CO)[C@H](O)[C@H]1O = 6.25 µg/mL
N#CC1=C(N)[C@]2(C(=O)Nc3ccccc32)[C@@H](c2cccs2)[C@@H]2CCCC=C12 = 125 µg/mL
N#CC1=C(N)[C@]2(C(=O)Nc3ccccc32)[C@@H](c2cccc3ccccc23)[C@@H]2CCCC=C12 = 125 µg/mL
COc1ccc([C@H]2[C@@H]3CCCC=C3C(C#N)=C(N)C23C(=O)CCCC3=O)cc1 (relative stereo) = 125 µg/mL

# evaluate next
[in] Hi! What's the reported MIC for Cc1ccc([C@H]2[C@@H]3CCC=C3C(C#N)=C(N)C23C(=O)c2ccccc2C3=O)cc1 (relative stereo) on Klebsiella pneumoniae?
[out] 250 µg/mL

* * *

# System: Shigella flexneri
# Experiment Summary: Antimicrobial activity against Shigella flexneri MTCC 1457 assessed as zone of inhibition at 1 mg/disc after 24 hrs incubation by disc diffusion assay
# Type: functional
Here the recorded inhibition zone (IZ) is given for each entry.
Please state the figure in mm; there is no need to write the unit.

Look over these answered cases.
N#CC1=C(N)[C@]2(C(=O)Nc3ccccc32)[C@@H](c2cccc3ccccc23)[C@@H]2CCCC=C12 = 12
COc1ccc([C@H]2[C@@H]3CCCC=C3C(C#N)=C(N)[C@]23C(=O)Nc2ccccc23)cc1 = 8
Cc1ccc([C@H]2[C@@H]3CCCCC=C3C(C#N)=C(N)[C@]23C(=O)Nc2ccccc23)cc1 = 11
Cc1ccc([C@H]2[C@@H]3CCCC=C3C(C#N)=C(N)C23C(=O)c2ccccc2C3=O)cc1 (relative stereo) = 8
CN[C@@H]1[C@H](O[C@H]2[C@H](O[C@H]3[C@H](O)[C@@H](O)[C@H](N=C(N)N)[C@@H](O)[C@@H]3N=C(N)N)O[C@@H](C)[C@]2(O)C=O)O[C@@H](CO)[C@H](O)[C@H]1O = 30

[in] Value lookup for inhibition zone (IZ); key = N#CC1=C(N)C2(C(=O)c3ccccc3C2=O)[C@@H](c2ccoc2)[C@@H]2CCCC=C12 (relative stereo)
[out] 14

[in] Value lookup for inhibition zone (IZ); key = N#CC1=C(N)C2(C(=O)c3ccccc3C2=O)[C@@H](c2ccccc2F)[C@@H]2CCC=C12 (relative stereo)
[out] 10

* * *

Here the recorded MIC is given for each entry.
# Tested on: Staphylococcus aureus
# Experiment Summary: Antimicrobial activity against Staphylococcus aureus MTCC 96 assessed as absence of visible growth after 48 to 72 hrs
# Assay type: functional
Please state the figure in µg/mL; there is no need to write the unit.

Look over these answered cases.
N#CC1=C(N)[C@]2(C(=O)Nc3ccccc32)[C@@H](c2ccccc2F)[C@@H]2CCCC=C12 (mixture of isomers) = 125
N#CC1=C(N)C2(C(=O)c3ccccc3C2=O)[C@@H](c2ccc(Cl)cc2)[C@@H]2CCCCC=C12 (relative stereo) = 250
N#CC1=C(N)C2(C(=O)c3ccccc3C2=O)[C@@H](c2ccccc2F)[C@@H]2CCC=C12 (relative stereo) = 250

[in] Value lookup for MIC; key = `N#CC1=C(N)[C@]2(C(=O)Nc3ccccc32)[C@@H](c2cccs2)[C@@H]2CCCC=C12`
[out] 250

[in] Value lookup for MIC; key = `Cc1ccc([C@H]2[C@@H]3CCCCC=C3C(C#N)=C(N)[C@]23C(=O)Nc2ccccc23)cc1`
[out] 250

* * *

# Tested on: Klebsiella pneumoniae
# Experiment Summary: Antimicrobial activity against Klebsiella pneumonia MTCC 109 assessed as absence of visible growth after 24 hrs
Metric: MIC (µg/mL)
Please state the figure in µg/mL; there is no need to write the unit.

N#CC1=C(N)C2(C(=O)c3ccccc3C2=O)[C@@H](c2cccs2)[C@@H]2CCCC=C12 (relative stereo) = 250
N#CC1=C(N)[C@]2(C(=O)Nc3ccccc32)[C@@H](c2ccccc2F)[C@@H]2CCCC=C12 (mixture of isomers) = 500
Cc1ccc([C@H]2[C@@H]3CCCCC=C3C(C#N)=C(N)[C@]23C(=O)Nc2ccccc23)cc1 = 250
N#CC1=C(N)C2(C(=O)c3ccccc3C2=O)[C@@H](c2ccoc2)[C@@H]2CCCC=C12 (relative stereo) = 250

[in] Value lookup for MIC; key = N#CC1=C(N)C2(C(=O)c3ccccc3C2=O)[C@@H](c2ccccc2F)[C@@H]2CCCC=C12 (relative stereo)
[out] 125

* * *

Here the recorded inhibition zone (IZ) is given for each entry.
# Tested on: Micrococcus luteus
# Experiment Summary: Antimicrobial activity against Micrococcus luteus MTCC 106 assessed as zone of inhibition at 1 mg/disc after 24 hrs incubation by disc diffusion assay
# Type: functional
Please state the figure in mm; there is no need to write the unit.

Look over these answered cases.
Cc1ccc([C@H]2[C@@H]3CCCCC=C3C(C#N)=C(N)C23C(=O)c2ccccc2C3=O)cc1 (relative stereo) = 10
N#CC1=C(N)[C@]2(C(=O)Nc3ccccc32)[C@@H](c2cccc3ccccc23)[C@@H]2CCCC=C12 = 10
N#CC1=C(N)[C@]2(C(=O)Nc3ccccc32)[C@@H](c2ccccc2F)[C@@H]2CCCC=C12 (mixture of isomers) = 10

[in] Value lookup for inhibition zone (IZ); key = N#CC1=C(N)C2(C(=O)c3ccccc3C2=O)[C@@H](c2cccs2)[C@@H]2CCCC=C12 (relative stereo)
[out] 10

* * *

# System: Staphylococcus aureus
# Experiment Summary: Antimicrobial activity against Staphylococcus aureus MTCC 96 assessed as absence of visible growth after 48 to 72 hrs
# Assay type: functional
Here the recorded MIC is given for each entry.
Please state the figure in µg/mL; there is no need to write the unit.

COc1ccc([C@H]2[C@@H]3CCCC=C3C(C#N)=C(N)C23C(=O)CCCC3=O)cc1 (relative stereo) = 250
N#CC1=C(N)C2(C(=O)c3ccccc3C2=O)[C@@H](c2ccccc2F)[C@@H]2CCCC=C12 (relative stereo) = 250
Cc1ccc([C@H]2[C@@H]3CCCCC=C3C(C#N)=C(N)C23C(=O)c2ccccc2C3=O)cc1 (relative stereo) = 250
N#CC1=C(N)C2(C(=O)c3ccccc3C2=O)[C@@H](c2ccoc2)[C@@H]2CCCC=C12 (relative stereo) = 250
Cc1ccc([C@H]2[C@@H]3CCCC=C3C(C#N)=C(N)[C@]23C(=O)Nc2ccccc23)cc1 = 250

[in] Hi! What's the reported MIC for `N#CC1=C(N)[C@]2(C(=O)Nc3ccccc32)[C@@H](c2ccc(Br)cc2)[C@@H]2CCCC=C12` on Staphylococcus aureus?
[out] 250

[in] Hi! What's the reported MIC for `CN[C@@H]1[C@H](O[C@H]2[C@H](O[C@H]3[C@H](O)[C@@H](O)[C@H](N=C(N)N)[C@@H](O)[C@@H]3N=C(N)N)O[C@@H](C)[C@]2(O)C=O)O[C@@H](CO)[C@H](O)[C@H]1O` on Staphylococcus aureus?
[out] 6.25

[in] Hi! What's the reported MIC for Cc1ccc([C@H]2[C@@H]3CCCC=C3C(C#N)=C(N)C23C(=O)c2ccccc2C3=O)cc1 (relative stereo) on Staphylococcus aureus?
[out] 250

[in] Hi! What's the reported MIC for N#CC1=C(N)C2(C(=O)c3ccccc3C2=O)[C@@H](c2cccc3ccccc23)[C@@H]2CCCC=C12 (relative stereo) on Staphylococcus aureus?
[out] 250

[in] Hi! What's the reported MIC for Cc1ccc([C@H]2[C@@H]3CCC=C3C(C#N)=C(N)C23C(=O)c2ccccc2C3=O)cc1 (relative stereo) on Staphylococcus aureus?
[out] 125

[in] Hi! What's the reported MIC for N#CC1=C(N)C2(C(=O)c3ccccc3C2=O)[C@@H](c2cccs2)[C@@H]2CCCC=C12 (relative stereo) on Staphylococcus aureus?
[out] 250
